# target: UniProtKB P11387
# Sequence (P11387 whole entry): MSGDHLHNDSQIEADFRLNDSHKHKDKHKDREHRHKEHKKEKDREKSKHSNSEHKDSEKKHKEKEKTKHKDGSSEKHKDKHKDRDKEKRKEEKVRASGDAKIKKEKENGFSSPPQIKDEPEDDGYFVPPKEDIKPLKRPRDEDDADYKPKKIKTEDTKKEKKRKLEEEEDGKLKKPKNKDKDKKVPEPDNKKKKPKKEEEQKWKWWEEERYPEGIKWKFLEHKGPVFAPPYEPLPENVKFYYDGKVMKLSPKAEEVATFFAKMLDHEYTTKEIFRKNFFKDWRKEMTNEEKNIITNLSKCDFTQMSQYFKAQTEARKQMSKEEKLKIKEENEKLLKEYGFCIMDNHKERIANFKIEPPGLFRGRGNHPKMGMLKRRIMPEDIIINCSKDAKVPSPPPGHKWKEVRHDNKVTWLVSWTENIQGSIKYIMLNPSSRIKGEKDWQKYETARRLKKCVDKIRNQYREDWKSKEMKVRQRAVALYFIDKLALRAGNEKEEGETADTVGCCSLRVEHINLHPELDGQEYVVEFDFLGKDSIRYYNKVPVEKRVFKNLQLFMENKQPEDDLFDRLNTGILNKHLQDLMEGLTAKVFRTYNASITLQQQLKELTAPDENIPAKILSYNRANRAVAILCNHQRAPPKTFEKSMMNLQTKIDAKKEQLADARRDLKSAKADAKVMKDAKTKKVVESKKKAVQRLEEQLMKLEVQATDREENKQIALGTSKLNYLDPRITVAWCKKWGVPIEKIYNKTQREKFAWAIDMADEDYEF
# assay: Inhibition of recombinant human topoisomerase 1 expressed in yeast TopI null strain RS190 at 100 uM using negatively supercoiled pUC18 plasmid DNA as substrate incubated for 1 min by agarose gel electrophoresis method
Categorized via inhibition: low: < 10%; medium: ≥ 10% and < 20%; high: ≥ 20%

{"record smiles": "Cc1ccc2c(c1)-c1nc3ncccc3c(-c3ccccc3)c1CO2", "assigned category": "low"}
{"record smiles": "O=c1oc2ccccc2c2nc3ncc(Br)cc3c(-c3ccccc3)c12", "assigned category": "medium"}
{"record smiles": "O=C1Oc2ccc(F)cc2[C@H]2Nc3ncccc3[C@@H](c3ccccc3)[C@H]12", "assigned category": "low"}

Lab note: which band did `Cc1ccc(S(=O)(=O)N2C[C@H]3[C@H](c4ccccc4)c4cccnc4N[C@@H]3c3ccccc32)cc1` land in?
high

Lab note: which band did `O=c1oc2ccc(F)cc2c2nc3ncccc3c(-c3ccccc3)c12` land in?
low

Lab note: which band did `Cc1ccc2c(c1)[C@H]1Nc3ncccc3[C@@H](c3ccccc3)[C@@H]1CO2` land in?
medium

Lab note: which band did `Cc1ccc(S(=O)(=O)N2Cc3c(nc4ncccc4c3-c3ccccc3)-c3ccccc32)cc1` land in?
high

Lab note: which band did `Fc1ccc2c(c1)[C@H]1Nc3ncccc3[C@@H](c3ccccc3)[C@@H]1CO2` land in?
medium

Lab note: which band did `O=c1oc2ccccc2c2nc3ncccc3c(-c3ccccc3)c12` land in?
high
